Cited source for all entries: patent US20180009892A1

Kindly state IC50 for each of the entries shown.
- Target Under Test: T1, human ROR1 extracellular domain (ECD) protein (human, UniProt Q01973 30-406)
- T1 construct: also called hROR1-ECD; human ROR1-ECD
- T1 sequence (Q01973 30-406 limits assumed): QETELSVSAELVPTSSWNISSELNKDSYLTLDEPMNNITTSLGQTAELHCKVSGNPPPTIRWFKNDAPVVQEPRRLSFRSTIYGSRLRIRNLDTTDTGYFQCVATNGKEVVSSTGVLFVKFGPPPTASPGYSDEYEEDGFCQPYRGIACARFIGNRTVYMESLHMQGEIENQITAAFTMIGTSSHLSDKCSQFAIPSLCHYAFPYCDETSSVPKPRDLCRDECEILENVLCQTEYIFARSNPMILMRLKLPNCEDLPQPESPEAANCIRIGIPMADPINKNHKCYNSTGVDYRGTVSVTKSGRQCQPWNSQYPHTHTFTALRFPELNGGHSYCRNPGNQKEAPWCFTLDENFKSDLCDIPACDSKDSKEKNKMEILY
- Test Summary: competitive phage ELISA: soluble ROR1 against ROR1-coated plate

- P601-9 (scFv, V domains shown) VH: QLQLQESGPGVVKPSGTLSLTCTVSGGSISRSDGYWGWVRQPPGKGLEWIGSIYDTGTTYYSPSLKSRLIISVDTSKNQFSLTLNSVTAADTAVYYCASMGGLRSSSSDAFHTWGPGTMVTVSS VL: QSVLTQPPSVSVAPGETARITCGGTNIGSESVHWYQQRPGQAPVLVVYDDTDRPSGIPERFSGSNSGNTATLTISRVEAGDGADYYCQVWDSVSDRYVFGTGTKVTVL: 14.6 nM
- P601-87 (scFv, V domains shown) VH: QVQLQESGPGLVKSSETLSLTCTVSGGSMNNYYWSWIRQPAGKGLEWMGRIYSSGSTNYNPALKSRVTMSVDTSKNQFSLNLSSVTAADTAIYYCARASWSGTYWALFDYWGQGTLVTVSS VL: ETTLTQSPAFMSATPGDKVNISCKASQDIDDDLNWYQQKPGEAPILIIQEATTLVPGIPPRFSGSGFGTDFTLTINSMQSEDVAYYFCLQHDNFPPTFGQGTKVEIK: 3.86 nM

--- query ---
Quick note, IC50 for P601-4 (scFv, V domains shown) VH: EVQLVQSGPGLVKPSGTLSLTCAVSGGSISSSNWWSWVRQPPGKGLEWIGEIYHSGSTNYNPSLKSRVTISVDKSKNQFSLKLGSVTAADTATYYCARDLWLGEWDLWGQGTLVTVSS VL: QSVLTQPPSASGAPGQRVTISCSGGISNVGTNGVNWYQHLPGTAPKLLVDAMNQRPSGVPDRFSGSRSGTSGSLAITGLRSEDEADYYCATWDDSLSGVLFGGGTKLTVLG landed at 0.93 nM
